In this section we review reported protein stability index values for a set of variants.
B1: OAS1 (parent)
chain: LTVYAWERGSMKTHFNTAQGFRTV

variants of: B1; test: protein stability index of a GFP-peptide fusion (GPS, HEK-293T) (PSI 1-6); higher = more stable; conditions: c terminus: a fixed tail appended;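 also: lentivirally expressed fusions sorted by FACS into six bins by GFP to DsRed ratio, PSI derived from sequencing read proportions per bin multiplied by bin number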
Please reply with the number alone, leaving off any unit.

{"columns": ["Mutation spec", "protein stability index"],
 "data": [
  ["E7W", 1.98],
  ["Q19I", 3.54],
  ["T17H", 2.95],
  ["T17A", 1.69],
  ["Q19A", 2.23],
  ["H14K", 2.35]
]}

// query protein stability index value for entry `A5C`
3.68

protein stability index lookup needed for `H14F` , thanks.
2.8

What protein stability index value was documented for this variant, `M11N` ?
2.06
